These entries and their values trace back to patent US20240366589A1.

- Test system: phosphorus and calcium levels in the urine of rats
- measurement protocol: Urinary excretion of phosphate and calcium in rats (16 h overnight urine)
- Format: in vivo, rat
- condition notes: rats, oral gavage, dose 10 mg/kg, 16 h post-dose
Note to self: Urine P % of control under 60% means t, ties and anything higher get f.

compound: C/C(=C\c1cc(F)c(Oc2ccc(S(=O)(=O)NCCOCCOCCOCCNC(=O)N(C)CCCCN(C)C(=O)NCCOCCOCCOCCNS(=O)(=O)c3ccc(Oc4c(F)cc(/C=C(\C)C(=O)N=C(N)N)cc4F)cc3)cc2)c(F)c1)C(=O)N=C(N)N
target desc: phosphorus and calcium levels in the urine of rats
category label: f
--
compound: NCCOCCOCCNS(=O)(=O)c1ccc(O[C@H]2c3ccccc3C[C@@H]2N2CCCCC2)cc1
target desc: phosphorus and calcium levels in the urine of rats
category label: f
--
compound: CN(C)[C@H]1Cc2c(F)cc(Cl)cc2[C@@H]1Oc1ccc(S(=O)(=O)NCCOCCOCCNC(=O)NCCCCNC(=O)NCCOCCOCCNS(=O)(=O)c2ccc(O[C@H]3c4cc(Cl)cc(F)c4C[C@@H]3N(C)C)cc2)cc1
target desc: phosphorus and calcium levels in the urine of rats
category label: t
--
compound: CC(C)(C(=O)NCCOCCOCCOCCNS(=O)(=O)c1ccc(O[C@H]2c3ccccc3C[C@@H]2N2CCCCC2)cc1)C(=O)NCCOCCOCCOCCNS(=O)(=O)c1ccc(O[C@H]2c3ccccc3C[C@@H]2N2CCCCC2)cc1
target desc: phosphorus and calcium levels in the urine of rats
category label: t
--
compound: NCCOCCOCCOc1ccc(-c2nc(N=C(N)N)nc3ccc(Cl)cc23)cc1
target desc: phosphorus and calcium levels in the urine of rats
category label: f
--
compound: O=C(NCCOCCOCCOCCNS(=O)(=O)c1ccc(O[C@H]2c3ccccc3C[C@@H]2N2CCCCC2)cc1)c1cccc(C(=O)NCCOCCOCCOCCNS(=O)(=O)c2ccc(O[C@H]3c4ccccc4C[C@@H]3N3CCCCC3)cc2)c1
target desc: phosphorus and calcium levels in the urine of rats
category label: f
--
compound: CN1Cc2c(Cl)cc(Cl)cc2[C@H](c2cccc(S(=O)(=O)NCCOCCOCCOCCNC(=O)CN3CCN(CC(=O)NCCOCCOCCOCCNS(=O)(=O)c4cccc([C@@H]5CN(C)Cc6c(Cl)cc(Cl)cc65)c4)CCN(CC(=O)NCCOCCOCCOCCNS(=O)(=O)c4cccc([C@@H]5CN(C)Cc6c(Cl)cc(Cl)cc65)c4)CCN(CC(=O)NCCOCCOCCOCCNS(=O)(=O)c4cccc([C@@H]5CN(C)Cc6c(Cl)cc(Cl)cc65)c4)CC3)c2)C1
target desc: phosphorus and calcium levels in the urine of rats
category label: f
--
compound: CN1Cc2c(Cl)cc(Cl)cc2[C@H](c2cccc(S(=O)(=O)NCCOCCOCCOCCNC(=O)CN(CC(=O)NCCOCCOCCOCCNS(=O)(=O)c3cccc([C@@H]4CN(C)Cc5c(Cl)cc(Cl)cc54)c3)CC(=O)NCCOCCOCCOCCNS(=O)(=O)c3cccc([C@@H]4CN(C)Cc5c(Cl)cc(Cl)cc54)c3)c2)C1
target desc: phosphorus and calcium levels in the urine of rats
category label: f
--
compound: O=C(NCCOCCOCCOCCNS(=O)(=O)c1ccc(OC2c3ccccc3CC2N2CCCCC2)cc1)C(O)C(O)C(=O)NCCOCCOCCOCCNS(=O)(=O)c1ccc(OC2c3ccccc3CC2N2CCCCC2)cc1 (mixture of isomers)
target desc: phosphorus and calcium levels in the urine of rats
category label: t

---

- target desc: Rat NHE3 (Rattus norvegicus)
- Construct: expressed in transfected cells; host or cells: Opossum kidney (OK) cells (ATCC), electroporation
- Sequence (P26433 29-831): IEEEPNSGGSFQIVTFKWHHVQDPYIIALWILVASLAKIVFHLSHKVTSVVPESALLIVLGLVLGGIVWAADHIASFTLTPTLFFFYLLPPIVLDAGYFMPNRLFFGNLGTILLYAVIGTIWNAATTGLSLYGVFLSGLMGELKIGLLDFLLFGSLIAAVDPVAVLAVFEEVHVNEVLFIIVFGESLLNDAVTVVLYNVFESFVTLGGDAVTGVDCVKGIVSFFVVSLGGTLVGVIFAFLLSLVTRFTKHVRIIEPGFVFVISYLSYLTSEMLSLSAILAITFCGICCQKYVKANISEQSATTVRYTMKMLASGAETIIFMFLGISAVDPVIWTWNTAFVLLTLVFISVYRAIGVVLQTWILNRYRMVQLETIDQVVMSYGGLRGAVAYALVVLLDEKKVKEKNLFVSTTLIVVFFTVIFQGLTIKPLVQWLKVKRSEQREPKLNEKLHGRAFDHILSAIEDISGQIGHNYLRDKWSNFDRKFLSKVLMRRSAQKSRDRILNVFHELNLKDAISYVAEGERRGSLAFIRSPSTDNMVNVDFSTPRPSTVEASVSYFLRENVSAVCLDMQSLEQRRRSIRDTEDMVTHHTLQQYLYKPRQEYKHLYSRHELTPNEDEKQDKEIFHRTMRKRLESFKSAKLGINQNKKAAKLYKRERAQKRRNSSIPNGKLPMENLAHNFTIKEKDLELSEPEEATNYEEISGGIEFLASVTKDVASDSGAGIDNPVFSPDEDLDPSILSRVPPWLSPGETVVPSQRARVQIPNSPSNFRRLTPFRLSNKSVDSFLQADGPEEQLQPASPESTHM
- measurement protocol: Cell-based NHE3 activity under prompt conditions (OK cells, BCECF pH recovery), rat NHE3
- condition notes: prompt conditions
test readout: Prompt Rat NHE3 pIC50

compound: CN1Cc2c(Cl)cc(Cl)cc2[C@H](c2cccc(S(=O)(=O)NCCOCCOCCN(C)C(=O)CCC(CCC(=O)N(C)CCOCCOCCNS(=O)(=O)c3cccc([C@@H]4CN(C)Cc5c(Cl)cc(Cl)cc54)c3)(CCC(=O)N(C)CCOCCOCCNS(=O)(=O)c3cccc([C@@H]4CN(C)Cc5c(Cl)cc(Cl)cc54)c3)NC(=O)COCC(=O)O)c2)C1 [compound 177]
test readout: Prompt Rat NHE3 pIC50
value modifier: =
readout value: 7.70
//
compound: CN(CC(=O)NCCOCCOCCNC(=O)NCCOCCOCCOCCN1CCN(c2cccc(-c3nc(NC(=N)N)nc4ccc(Cl)cc34)c2)CC1)CC(=O)NCCOCCOCCNC(=O)NCCOCCOCCOCCN1CCN(c2cccc(-c3nc(NC(=N)N)nc4ccc(Cl)cc34)c2)CC1 [compound 42]
test readout: Prompt Rat NHE3 pIC50
value modifier: =
readout value: 7.70
//
compound: NCCOCCOCCOc1cccc(-c2nc(N=C(N)N)nc3ccc(Cl)cc23)c1 [compound 10]
test readout: Prompt Rat NHE3 pIC50
value modifier: =
readout value: 6.65
//
compound: CC(C)CCC[C@@H](C)[C@H]1CC[C@H]2[C@@H]3CC=C4C[C@@H](OC(=O)NCCOCCOCCNC(=O)N(CCNC(=O)NCCOCCOCCNS(=O)(=O)c5cccc([C@@H]6CN(C)Cc7c(Cl)cc(Cl)cc76)c5)CCNC(=O)NCCOCCOCCNS(=O)(=O)c5cccc([C@@H]6CN(C)Cc7c(Cl)cc(Cl)cc76)c5)CC[C@]4(C)[C@H]3CC[C@]12C [compound 121]
test readout: Prompt Rat NHE3 pIC50
value modifier: <
readout value: 5.00

---

- target desc: Human NHE3 (Homo sapiens)
- Construct: expressed in transfected cells; host or cells: Opossum kidney (OK) cells (ATCC), electroporation
- Sequence (P48764 26-834): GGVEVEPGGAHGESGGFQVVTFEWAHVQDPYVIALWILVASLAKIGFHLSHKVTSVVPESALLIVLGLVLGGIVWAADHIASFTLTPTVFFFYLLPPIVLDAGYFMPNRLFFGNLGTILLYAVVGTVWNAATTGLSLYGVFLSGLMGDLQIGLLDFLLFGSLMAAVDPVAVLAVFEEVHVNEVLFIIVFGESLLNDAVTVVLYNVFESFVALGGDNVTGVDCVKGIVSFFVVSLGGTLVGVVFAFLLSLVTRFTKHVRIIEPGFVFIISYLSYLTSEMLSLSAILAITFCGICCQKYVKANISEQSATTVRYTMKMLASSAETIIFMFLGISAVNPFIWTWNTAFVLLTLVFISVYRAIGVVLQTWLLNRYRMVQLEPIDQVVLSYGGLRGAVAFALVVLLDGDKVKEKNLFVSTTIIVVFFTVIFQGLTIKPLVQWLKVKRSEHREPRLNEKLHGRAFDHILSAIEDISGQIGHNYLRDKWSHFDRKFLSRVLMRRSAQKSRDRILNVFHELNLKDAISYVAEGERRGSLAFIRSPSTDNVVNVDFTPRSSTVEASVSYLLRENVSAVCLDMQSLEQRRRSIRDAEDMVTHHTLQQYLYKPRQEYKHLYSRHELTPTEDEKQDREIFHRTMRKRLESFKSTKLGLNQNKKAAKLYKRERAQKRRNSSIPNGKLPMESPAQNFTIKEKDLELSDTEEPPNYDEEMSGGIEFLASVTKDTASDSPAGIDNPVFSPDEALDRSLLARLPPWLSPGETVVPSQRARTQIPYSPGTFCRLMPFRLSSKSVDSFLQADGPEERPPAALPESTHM
- measurement protocol: Cell-based NHE3 activity under prompt conditions (OK cells, BCECF pH recovery), human NHE3
- condition notes: prompt conditions
Recorded Prompt Human NHE3 pIC50, one value per entry.

molecule: C/C(=C\c1cc(F)c(Oc2ccc(S(=O)(=O)NCCOCCOCCOCCNC(=O)NCCCCNC(=O)NCCOCCOCCOCCNS(=O)(=O)c3ccc(Oc4c(F)cc(/C=C(\C)C(=O)N=C(N)N)cc4F)cc3)cc2)c(F)c1)C(=O)N=C(N)N
Prompt Human NHE3 pIC50: 8.10
--
molecule: CN1Cc2c(Cl)cc(Cl)cc2C(c2cccc(S(=O)(=O)NCCOCCOCCOCCNC(=O)CN(CCN(CCN(CC(=O)NCCOCCOCCOCCNS(=O)(=O)c3cccc([C@@H]4CN(C)Cc5c(Cl)cc(Cl)cc54)c3)CC(=O)NCCOCCOCCOCCNS(=O)(=O)c3cccc([C@@H]4CN(C)Cc5c(Cl)cc(Cl)cc54)c3)CC(=O)NCCOCCOCCOCCNS(=O)(=O)c3cccc([C@@H]4CN(C)Cc5c(Cl)cc(Cl)cc54)c3)CC(=O)NCCOCCOCCOCCNS(=O)(=O)c3cccc([C@@H]4CN(C)Cc5c(Cl)cc(Cl)cc54)c3)c2)C1 (stereo in doubt)
Prompt Human NHE3 pIC50: 6.90
--
molecule: N=C(N)Nc1nc(-c2cccc(N3CCN(CCOCCOCCOCCNC(=O)CCOCCOCCOCCOCCOCCC(=O)NCCOCCOCCOCCN4CCN(c5cccc(-c6nc(NC(=N)N)nc7ccc(Cl)cc67)c5)CC4)CC3)c2)c2cc(Cl)ccc2n1
Prompt Human NHE3 pIC50: 8.55

---

- Test system: absorption of sodium from the intestinal lumen
- measurement protocol: Inhibition of intestinal sodium absorption: urinary sodium (uNa) 16 h after single oral dose in rats
- Format: in vivo, rat
- condition notes: oral gavage, dose 3 mg/kg, 16 h post-dose
Note to self: Urine Na % of control under 40% means 1, ties and anything higher get 0.

compound: CN(C)[C@H]1Cc2c(Cl)cc(Cl)cc2[C@@H]1Oc1ccc(S(=O)(=O)NCCOCCOCCNC(=O)C(C)(C)C(=O)NCCOCCOCCNS(=O)(=O)c2ccc(O[C@H]3c4cc(Cl)cc(Cl)c4C[C@@H]3N(C)C)cc2)cc1
category label: 0
//
compound: CN1Cc2c(Cl)cc(Cl)cc2C(c2cccc(S(=O)(=O)NCCOCCOCCNC(=O)CN(CCOCCOCCOCCN)CC(=O)NCCOCCOCCNS(=O)(=O)c3cccc([C@@H]4CN(C)Cc5c(Cl)cc(Cl)cc54)c3)c2)C1 (stereo in doubt)
category label: 0
//
compound: CN1Cc2c(Cl)cc(Cl)cc2[C@H](c2cccc(S(=O)(=O)NCCOCCOCCNC(=O)CCC(CCC(=O)NCCOCCOCCNS(=O)(=O)c3cccc([C@@H]4CN(C)Cc5c(Cl)cc(Cl)cc54)c3)(CCC(=O)NCCOCCOCCNS(=O)(=O)c3cccc([C@@H]4CN(C)Cc5c(Cl)cc(Cl)cc54)c3)NC(=O)N(C)C)c2)C1
category label: 1
//
compound: CCN(CCOCCOCCNC(=O)NCCCN(CCCNC(=O)NCCOCCOCCN(CC)S(=O)(=O)c1cccc([C@@H]2CN(C)Cc3c(Cl)cc(Cl)cc32)c1)CCCNC(=O)NCCOCCOCCN(CC)S(=O)(=O)c1cccc([C@@H]2CN(C)Cc3c(Cl)cc(Cl)cc32)c1)S(=O)(=O)c1cccc([C@@H]2CN(C)Cc3c(Cl)cc(Cl)cc32)c1
category label: 0
//
compound: CN1Cc2c(Cl)cc(Cl)cc2[C@H](c2cccc(S(=O)(=O)NCCOCCOCCNC(=O)CCC(CCC(=O)NCCOCCOCCNS(=O)(=O)c3cccc([C@@H]4CN(C)Cc5c(Cl)cc(Cl)cc54)c3)(CCC(=O)NCCOCCOCCNS(=O)(=O)c3cccc([C@@H]4CN(C)Cc5c(Cl)cc(Cl)cc54)c3)NC(=O)N[C@@H](CO)C(=O)O)c2)C1
category label: 1
//
compound: CN(C)[C@H]1Cc2c(Cl)cc(Cl)cc2[C@@H]1Oc1ccc(S(=O)(=O)NCCOCCOCCNC(=O)CCC(C)(N)CCC(=O)NCCOCCOCCNS(=O)(=O)c2ccc(O[C@H]3c4cc(Cl)cc(Cl)c4C[C@@H]3N(C)C)cc2)cc1
category label: 1
//
compound: CN(C)CC(=O)NC(CCC(=O)NCCOCCOCCNS(=O)(=O)c1cccc([C@@H]2CN(C)Cc3c(Cl)cc(Cl)cc32)c1)(CCC(=O)NCCOCCOCCNS(=O)(=O)c1cccc([C@@H]2CN(C)Cc3c(Cl)cc(Cl)cc32)c1)CCC(=O)NCCOCCOCCNS(=O)(=O)c1cccc([C@@H]2CN(C)Cc3c(Cl)cc(Cl)cc32)c1
category label: 1
//
compound: CN1Cc2c(Cl)cc(Cl)cc2[C@H](c2cccc(S(=O)(=O)NCCOCCOCCNC(=O)CCC(CCC(=O)NCCOCCOCCNS(=O)(=O)c3cccc([C@@H]4CN(C)Cc5c(Cl)cc(Cl)cc54)c3)(CCC(=O)NCCOCCOCCNS(=O)(=O)c3cccc([C@@H]4CN(C)Cc5c(Cl)cc(Cl)cc54)c3)NC(=O)NC(CO)CO)c2)C1
category label: 1
//
compound: CN1Cc2c(Cl)cc(Cl)cc2[C@H](c2cccc(S(=O)(=O)NCCOCCOCCN(C)C(=O)CCC(N)(CCC(=O)N(C)CCOCCOCCNS(=O)(=O)c3cccc([C@@H]4CN(C)Cc5c(Cl)cc(Cl)cc54)c3)CCC(=O)N(C)CCOCCOCCNS(=O)(=O)c3cccc([C@@H]4CN(C)Cc5c(Cl)cc(Cl)cc54)c3)c2)C1
category label: 0
//
compound: CN1Cc2c(Cl)cc(Cl)cc2[C@H](c2cccc(S(=O)(=O)NCCOCCOCCNC(=O)CCC(CCC(=O)NCCOCCOCCNS(=O)(=O)c3cccc([C@@H]4CN(C)Cc5c(Cl)cc(Cl)cc54)c3)(CCC(=O)NCCOCCOCCNS(=O)(=O)c3cccc([C@@H]4CN(C)Cc5c(Cl)cc(Cl)cc54)c3)NC(=O)NCCN3CCOCC3)c2)C1
category label: 1
//
compound: CN(C)[C@H]1Cc2c(Cl)cc(Cl)cc2[C@@H]1Oc1ccc(S(=O)(=O)NCCOCCOCCNC(=O)[C@H](O)[C@@H](O)C(=O)NCCOCCOCCNS(=O)(=O)c2ccc(O[C@H]3c4cc(Cl)cc(Cl)c4C[C@@H]3N(C)C)cc2)cc1
category label: 0
//
compound: CN(C)CC(=O)NC(CCC(=O)N(C)CCOCCOCCNS(=O)(=O)c1cccc([C@@H]2CN(C)Cc3c(Cl)cc(Cl)cc32)c1)(CCC(=O)N(C)CCOCCOCCNS(=O)(=O)c1cccc([C@@H]2CN(C)Cc3c(Cl)cc(Cl)cc32)c1)CCC(=O)N(C)CCOCCOCCNS(=O)(=O)c1cccc([C@@H]2CN(C)Cc3c(Cl)cc(Cl)cc32)c1
category label: 0
